B1: TEKT4 (parent)
chain: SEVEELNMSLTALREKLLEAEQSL

Variants of: B1
Assay: protein stability index of a GFP-peptide fusion (GPS, HEK-293T) (PSI 1-6); higher = more stable;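 note: lentivirally expressed fusions sorted by FACS into six bins by GFP to DsRed ratio, PSI derived from sequencing read proportions per bin multiplied by bin number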
Conditions: c terminus: a fixed tail appended
Tick YES if protein stability index is 3 or greater. Tick NO if protein stability index is less than 3.

mutant_name=Q22D group_label=NO
mutant_name=A20C group_label=YES
mutant_name=E15M group_label=NO
mutant_name=V3N group_label=NO
mutant_name=L13A group_label=YES
mutant_name=L24S group_label=YES
mutant_name=E4F group_label=NO
mutant_name=L17V group_label=YES
mutant_name=A20D group_label=YES
mutant_name=L10T group_label=YES
mutant_name=K16T group_label=NO
mutant_name=N7M group_label=NO
mutant_name=M8K group_label=NO
mutant_name=Q22E group_label=YES
mutant_name=M8D group_label=YES
mutant_name=N7Y group_label=YES
mutant_name=E15N group_label=NO
mutant_name=E5V group_label=NO
mutant_name=E19N group_label=YES
mutant_name=Q22I group_label=NO
